Reference source for all entries: patent US20260242735A1

tested system: human CD33 P132H (human, UniProt P20138 18-364)
Sequence (P20138 18-364 P132H limits assumed): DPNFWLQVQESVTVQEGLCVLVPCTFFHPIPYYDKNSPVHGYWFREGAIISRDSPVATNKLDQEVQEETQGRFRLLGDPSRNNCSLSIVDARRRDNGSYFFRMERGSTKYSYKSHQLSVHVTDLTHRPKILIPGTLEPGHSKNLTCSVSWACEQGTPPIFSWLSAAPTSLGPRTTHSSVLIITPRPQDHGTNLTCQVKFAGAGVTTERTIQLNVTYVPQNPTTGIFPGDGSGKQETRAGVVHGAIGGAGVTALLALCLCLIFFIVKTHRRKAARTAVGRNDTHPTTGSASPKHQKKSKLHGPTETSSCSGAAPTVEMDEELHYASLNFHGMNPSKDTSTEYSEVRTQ
method: flow cytometry, HEK293-T, IgG;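 also: CD33 point mutants transiently expressed, antibody binding measured by fluorescence in duplicate, background subtracted and scaled to binding on wild-type CD33 as 100%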
For each entry below, report its Mean % WT Binding value.
Lab book: enter the figure in % WT binding, no units written.

I am curious: what Mean % WT Binding value has been reported for Refmab #4 (antibody, human IgG1, V domains shown, tested in IgG format) VH: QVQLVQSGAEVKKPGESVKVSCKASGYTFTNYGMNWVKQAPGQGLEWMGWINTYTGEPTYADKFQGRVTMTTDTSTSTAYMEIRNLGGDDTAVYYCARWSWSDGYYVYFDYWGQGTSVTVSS VL: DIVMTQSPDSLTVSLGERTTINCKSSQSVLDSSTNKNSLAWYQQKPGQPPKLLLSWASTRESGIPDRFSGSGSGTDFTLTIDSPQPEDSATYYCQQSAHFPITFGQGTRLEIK ?
92.7

Moving on to Refmab #2 (antibody, human IgG1, V domains shown, tested in IgG format) VH: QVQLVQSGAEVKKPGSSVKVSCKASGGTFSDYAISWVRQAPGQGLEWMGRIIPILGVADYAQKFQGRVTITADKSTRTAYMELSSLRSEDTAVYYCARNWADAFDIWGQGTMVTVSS VL: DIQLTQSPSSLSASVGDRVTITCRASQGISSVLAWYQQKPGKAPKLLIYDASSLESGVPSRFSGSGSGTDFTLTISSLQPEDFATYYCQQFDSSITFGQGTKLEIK
101

Query Refmab #1 (antibody, human IgG1, V domains shown, tested in IgG format; also called hP67.6) VH: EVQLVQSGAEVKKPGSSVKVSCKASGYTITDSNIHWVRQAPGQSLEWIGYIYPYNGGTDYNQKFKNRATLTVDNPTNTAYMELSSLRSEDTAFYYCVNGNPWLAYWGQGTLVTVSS VL: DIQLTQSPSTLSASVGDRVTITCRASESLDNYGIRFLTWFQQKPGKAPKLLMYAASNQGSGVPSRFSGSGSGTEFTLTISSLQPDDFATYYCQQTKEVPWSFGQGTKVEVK next
84.9

// same read-out, input: Refmab #3 (antibody, human IgG1, V domains shown, tested in IgG format) VH: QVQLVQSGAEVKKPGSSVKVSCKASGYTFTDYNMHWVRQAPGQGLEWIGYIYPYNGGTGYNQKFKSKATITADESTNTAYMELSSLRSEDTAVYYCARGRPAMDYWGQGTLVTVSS VL: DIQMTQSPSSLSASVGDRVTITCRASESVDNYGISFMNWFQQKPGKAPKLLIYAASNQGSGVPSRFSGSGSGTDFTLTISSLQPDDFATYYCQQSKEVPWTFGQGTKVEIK
87.8
